The compounds listed here are annotated with their percentage damage caused to the plant, AMARE (five-point scale).
System: Amaranthus retoflexus (AMARE)
Test: Post-emergence herbicidal test
Type: in vivo
Conditions: 1000 g/ha unless otherwise stated, evaluated after 13 days
measured property: percentage damage caused to the plant, AMARE (five-point scale)

compound="CC(C)Cc1ccc2c(c1S(C)(=O)=O)c(=O)c(C(=O)O)nn2-c1ccc(OC(F)(F)F)cc1 [Compound P15]" reading="1 (1=10-20%)"
compound="Cc1ccc2c(c1S(C)(=O)=O)c(=O)c(C(=O)O)nn2-c1ccc(OC(F)(F)F)cc1 [Compound P6]" reading="2 (2=21-40%)"
compound="COC(=O)c1nn(-c2ccc(OC(F)(F)F)cc2)c2cc(OC)cc(SC)c2c1=O [Compound P56]" reading="1 (1=10-20%)"
compound="CCCCCCCCCOC(=O)c1nn(-c2ccc(OC(F)(F)F)cc2)c2cccc(S(C)(=O)=O)c2c1=O [Compound P82]" reading="0 (0=0%)"
compound="CC[S+]([O-])c1cccc2c1c(=O)c(C(=O)O)nn2-c1ccc(OC(F)(F)F)cc1 (stereo not shown) [Compound P25]" reading="0 (0=0%)"
compound="C=CCOC(=O)c1nn(-c2ccc(OC(F)(F)F)cc2)c2cccc(S(C)(=O)=O)c2c1=O [Compound P80]" reading="0 (0=0%)"
compound="CCOC(=O)c1nn(-c2ccc(OC(F)(F)F)cc2)c2ccc(F)c(S(C)(=O)=O)c2c1=O [Compound P51]" reading="0 (0=0%)"
compound="CC(C)CCOC(=O)c1nn(-c2ccc(OC(F)(F)F)cc2)c2cccc(S(C)(=O)=O)c2c1=O [Compound P88]" reading="0 (0=0%)"
compound="O=C(O)c1nn(-c2ccc(OC(F)(F)F)cc2)c2cccc(S(=O)(=O)CC(F)(F)F)c2c1=O [Compound P35]" reading="1 (1=10-20%)"
compound="CCOC(=O)c1nn(-c2ccc(OC(F)(F)F)cc2)c2cc(CC(C)C)cc(S(C)(=O)=O)c2c1=O [Compound P46]" reading="0 (0=0%)"
compound="CCOC(=O)c1nn(-c2ccc(OC(F)(F)F)cc2)c2cc(F)cc(SC)c2c1=O [Compound P54]" reading="2 (2=21-40%)"
compound="CS(=O)(=O)c1cccc2c1c(=O)c(C(=O)O)nn2-c1ccc(Cl)cc1F [Compound P41]" reading="1 (1=10-20%)"
compound="CCOC(=O)c1nn(-c2ccc(OC(F)(F)F)cc2)c2cc(Br)cc(S(C)(=O)=O)c2c1=O [Compound P11]" reading="0 (0=0%)"
compound="CC(C)COC(=O)c1nn(-c2ccc(OC(F)(F)F)cc2)c2cccc(S(C)(=O)=O)c2c1=O [Compound P72]" reading="0 (0=0%)"
compound="CS(=O)(=O)c1cccc2c1c(=O)c(C(=O)O)nn2-c1ccc(Cl)cc1Cl [Compound P43]" reading="1 (1=10-20%)"
compound="O=C(O)c1nn(-c2ccc(OC(F)(F)F)cc2)c2cccc(SC3CC3)c2c1=O [Compound P30]" reading="1 (1=10-20%)"

====

System: Zea mays (ZEAMX)
Experiment: Pre-emergence herbicidal test
Assay type: in vivo
Details: 1000 g/ha, evaluated after 13 days
Listed below: percentage damage caused to the plant, five-point scale, ZEAMX values for each entry.
measured property: percentage damage caused to the plant, five-point scale, ZEAMX

molecule=CS(=O)(=O)c1cccc2c1c(=O)c(C(=O)OCCCc1ccccc1)nn2-c1ccc(OC(F)(F)F)cc1 system="Zea mays (ZEAMX)" reading="0 (0=0%)"
molecule=CS(=O)(=O)c1cc(Br)cc2c1c(=O)c(C(=O)O)nn2-c1ccc(OC(F)(F)F)cc1 system="Zea mays (ZEAMX)" reading="0 (0=0%)"
molecule=CCOC(=O)c1nn(-c2ccc(OC(F)(F)F)cc2)c2ccc(C)c(S(C)(=O)=O)c2c1=O system="Zea mays (ZEAMX)" reading="1 (1=10-20%)"
molecule=CCOC(=O)c1nn(-c2ccc(OC(F)(F)F)cc2)c2cc(Br)cc(S(C)(=O)=O)c2c1=O system="Zea mays (ZEAMX)" reading="0 (0=0%)"
molecule=COc1cc(S(C)(=O)=O)c2c(=O)c(C(=O)O)nn(-c3ccc(OC(F)(F)F)cc3)c2c1 system="Zea mays (ZEAMX)" reading="0 (0=0%)"
molecule=CC(C)Cc1cc(S(C)(=O)=O)c2c(=O)c(C(=O)O)nn(-c3ccc(OC(F)(F)F)cc3)c2c1 system="Zea mays (ZEAMX)" reading="1 (1=10-20%)"

====

System: Abutilon theophrasti (ABUTH)
Assay: Pre-emergence herbicidal test
Format: in vivo
Conditions: 1000 g/ha, evaluated after 13 days
measured property: percentage damage caused to the plant, five-point scale, ABUTH

molecule=CS(=O)(=O)c1cccc2c1c(=O)c(C(=O)OCC1CC1)nn2-c1ccc(OC(F)(F)F)cc1 reading="0 (0=0%)"
molecule=CCOC(=O)c1nn(-c2ccc(OC(F)(F)F)cc2)c2cccc(S(=O)(=O)CC(F)(F)F)c2c1=O reading="1 (1=10-20%)"
molecule=C#CCCOC(=O)c1nn(-c2ccc(OC(F)(F)F)cc2)c2cccc(S(C)(=O)=O)c2c1=O reading="0 (0=0%)"
molecule=COc1ccc2c(c1S(C)(=O)=O)c(=O)c(C(=O)O)nn2-c1ccc(OC(F)(F)F)cc1 reading="0 (0=0%)"
molecule=C#CCCCOC(=O)c1nn(-c2ccc(OC(F)(F)F)cc2)c2cccc(S(C)(=O)=O)c2c1=O reading="0 (0=0%)"
molecule=CC(C)CCSC(=O)c1nn(-c2ccc(OC(F)(F)F)cc2)c2cccc(S(C)(=O)=O)c2c1=O reading="0 (0=0%)"
molecule=CCOC(=O)c1nn(-c2ccc(OC(F)(F)F)cc2)c2cc(F)cc(SC)c2c1=O reading="1 (1=10-20%)"

====

Test system: Zea mays (ZEAMX)
Assay: Pre-emergence herbicidal test
Type: in vivo
Details: 1000 g/ha, evaluated after 13 days
measured property: percentage damage caused to the plant, five-point scale, ZEAMX

molecule=CS(=O)(=O)c1cccc2c1c(=O)c(C(=O)OCC(F)F)nn2-c1ccc(OC(F)(F)F)cc1 system="Zea mays (ZEAMX)" reading="2 (2=21-40%)"
molecule=CCOC(=O)c1nn(-c2ccc(OC(F)(F)F)cc2)c2cc(F)cc(SC)c2c1=O system="Zea mays (ZEAMX)" reading="0 (0=0%)"
molecule=CS(=O)(=O)c1cccc2c1c(=O)c(C(=O)OCCCCCCCCCc1ccccc1)nn2-c1ccc(OC(F)(F)F)cc1 system="Zea mays (ZEAMX)" reading="0 (0=0%)"
molecule=CC(C)CCOC(=O)c1nn(-c2ccc(OC(F)(F)F)cc2)c2cccc(S(C)(=O)=O)c2c1=O system="Zea mays (ZEAMX)" reading="0 (0=0%)"
molecule=COC(=O)COC(=O)c1nn(-c2ccc(OC(F)(F)F)cc2)c2cccc(S(C)(=O)=O)c2c1=O system="Zea mays (ZEAMX)" reading="0 (0=0%)"
molecule=CCSc1cccc2c1c(=O)c(C(=O)O)nn2-c1ccc(OC(F)(F)F)cc1 system="Zea mays (ZEAMX)" reading="0 (0=0%)"
molecule=CS(=O)(=O)c1cccc2c1c(=O)c(C(=O)OCCCl)nn2-c1ccc(OC(F)(F)F)cc1 system="Zea mays (ZEAMX)" reading="1 (1=10-20%)"
molecule=CC(C)(C)COC(=O)c1nn(-c2ccc(OC(F)(F)F)cc2)c2cccc(S(C)(=O)=O)c2c1=O system="Zea mays (ZEAMX)" reading="0 (0=0%)"
molecule=CCOC(=O)c1nn(-c2ccc(OC(F)(F)F)cc2)c2cccc(S(=O)(=O)CC(F)(F)F)c2c1=O system="Zea mays (ZEAMX)" reading="1 (1=10-20%)"
molecule=CCOC(=O)c1nn(-c2ccc(OC(F)(F)F)cc2)c2cccc(SC3CC3)c2c1=O system="Zea mays (ZEAMX)" reading="0 (0=0%)"
molecule=CCOC(=O)c1nn(-c2ccc(OC(F)(F)F)cc2)c2cc(C#N)cc(S(C)(=O)=O)c2c1=O system="Zea mays (ZEAMX)" reading="0 (0=0%)"
molecule=COCCCOC(=O)c1nn(-c2ccc(OC(F)(F)F)cc2)c2cccc(S(C)(=O)=O)c2c1=O system="Zea mays (ZEAMX)" reading="0 (0=0%)"
molecule=C=C(Cl)COC(=O)c1nn(-c2ccc(OC(F)(F)F)cc2)c2cccc(S(C)(=O)=O)c2c1=O system="Zea mays (ZEAMX)" reading="1 (1=10-20%)"
molecule=CCOC(=O)c1nn(-c2ccc(OC(F)(F)F)cc2)c2cccc(SCC(F)(F)F)c2c1=O system="Zea mays (ZEAMX)" reading="0 (0=0%)"
molecule="CCOC(=O)c1nn(-c2ccc(OC(F)(F)F)cc2)c2cccc([S+]([O-])CC(F)(F)F)c2c1=O (stereo not drawn)" system="Zea mays (ZEAMX)" reading="0 (0=0%)"

Values compiled from patent US20230250066A1.
